# test.method.notes: Kinetic aqueous solubility
# Type: physicochemical
# experimental.parameters: phosphate buffered saline with 5% DMSO, aqueous with cosolvent or surfactant or cyclodextrin, kinetic from dmso stock; after 2 h, at 37 °C in PBS, pH 7.4, 5% DMSO; target concentration 500 μM; mean ± S.E.M, n = 3
Give solubility kinetic at 2 h for every item shown.
Unit µM implied. Number only.

Lookup: Supply solubility kinetic at 2 h value. Item: COC(=O)[C@]1(C)CCC[C@@]2(C)C3CC[C@]4(O)C[C@@]3(CCC21)[C@@H](O)[C@]4(O)CN[C@H](C)c1ccccc1 (stereo partly drawn)
Found: 182

Lookup: Supply solubility kinetic at 2 h value. Item: CC[C@@H](NC[C@@]1(O)[C@H](O)[C@@]23CCC4[C@@](C)(CCC[C@@]4(C)C(=O)OC)C2CC[C@]1(O)C3)c1ccccc1 (stereo partly drawn)
Found: 145

Lookup: Supply solubility kinetic at 2 h value. Item: COC(=O)[C@]1(C)CCC[C@@]2(C)C3CC[C@]4(O)C[C@@]3(CCC21)[C@@H](O)[C@]4(O)CNCc1ccccc1 (stereo partly drawn)
Found: 291

Lookup: Supply solubility kinetic at 2 h value. Item: COC(=O)[C@]1(C)CCC[C@@]2(C)C3CC[C@]4(O)C[C@@]3(CCC21)[C@@H](O)[C@]41CN(Cc2ccccc2)CO1 (stereo partly drawn)
Found: 321

Lookup: Supply solubility kinetic at 2 h value. Item: COC(=O)[C@]1(C)CCC[C@@]2(C)C3CC[C@]4(O)C[C@@]3(CCC21)[C@@H](O)[C@]4(O)CN[C@@H](C)c1ccc2ccccc2c1 (stereo partly drawn)
Found: 11.9

Lookup: Supply solubility kinetic at 2 h value. Item: COC(=O)[C@]1(C)CCC[C@@]2(C)C3CC[C@]4(O)C[C@@]3(CCC21)[C@@H](O)[C@]4(O)CN (stereo partly drawn)
Found: 535
